Molecular target: von Willebrand factor A1 domain (Homo sapiens) (UniProt P04275)
Assay: SPR
Conditions: n = Ds at 3 positions; 37 C, likely pM (protein 0.078-5 nM)
property.name: Kd (pM)
Give bare numbers, in pM.

Please report the measured Kd for CGTGACCGANGAGCACCTAACNGGTCTCAACGNTGGAGGTCACG [vWF2-DsDsDs]
7.49e+07

---

Target: von Willebrand factor A1 domain (Homo sapiens)
Experiment: SPR
Conditions: n = Ds at 3 positions; 37 C, phosphate buffer 155 mM NaCl, 0.05% NP-40
property.name: Kd (nM)
One number for each entry, in nM.

Please report the measured Kd for CGAGGCTCCCCANCTTTCGCCNACANCCGAGGGAGCCTCG [vWF1-DsDsDs-GC]
1.08
